Experiment description: Novel Modifiers of Survival Motor Neuron (SMN) Protein: Gene Identification via Genome-wide siRNA Screen;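 also: luminescence tracks full-length SMN protein made from the SMN2 reporter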
Particulars: HEK293T SMN2-luciferase reporter, siRNA knockdown, 72 h; actives lie on both sides
Hit rate of the full screen: of about 31,000 sequences, about 1,400 (4.5%) were called active.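 The calls were made as follows: active = median seed-adjusted z-score above 1 or below -1; inactive = the rest.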 The sample as a whole holds a higher share of actives than the screen did.
Outcome codes: active, inactive

- Sequence text: "GCUCAGAUGUUAUUCGGGATT against SKIV2L"
  Label class: "inactive"
- Sequence text: "CCAGCUCCACGAAAAAGAATT against ZNF395"
  Label class: "inactive"
- Sequence text: "AUAUAACUGCUGAUCUAGATT against SPCS3"
  Label class: "inactive"
- Sequence text: "CAGGUGCUUCGUUUCCUGATT against ARHGAP1"
  Label class: "active"
- Sequence text: "AGGCAUUCCUCGGAAGUCATT against SMAD7"
  Label class: "inactive"
- Sequence text: "CUACUAUUCAGAGACAACATT against GPR3"
  Label class: "inactive"
- Sequence text: "UGCCUUAUCUGGAAGCAAATT against ERMAP"
  Label class: "inactive"
- Sequence text: "CAUUAACCAGUGAACGCAATT against AADAT"
  Label class: "inactive"
- Sequence text: "CCCUACCAACAUUAAGUAUTT against CLDN7"
  Label class: "inactive"
- Sequence text: "GCUCCAUCCUUAUUCAACATT against ZIK1"
  Label class: "inactive"
- Sequence text: "GGAAGAACGUGUAACCGAATT against RDX"
  Label class: "inactive"
- Sequence text: "CCAACCACCAGAUCUAUGATT against LBX1"
  Label class: "inactive"
